biological target: Transient receptor potential cation channel subfamily A member 1 (Homo sapiens); test: Antagonist activity at TRPA1 channel at 10 uM; format: functional
Sequence (O75762 whole entry): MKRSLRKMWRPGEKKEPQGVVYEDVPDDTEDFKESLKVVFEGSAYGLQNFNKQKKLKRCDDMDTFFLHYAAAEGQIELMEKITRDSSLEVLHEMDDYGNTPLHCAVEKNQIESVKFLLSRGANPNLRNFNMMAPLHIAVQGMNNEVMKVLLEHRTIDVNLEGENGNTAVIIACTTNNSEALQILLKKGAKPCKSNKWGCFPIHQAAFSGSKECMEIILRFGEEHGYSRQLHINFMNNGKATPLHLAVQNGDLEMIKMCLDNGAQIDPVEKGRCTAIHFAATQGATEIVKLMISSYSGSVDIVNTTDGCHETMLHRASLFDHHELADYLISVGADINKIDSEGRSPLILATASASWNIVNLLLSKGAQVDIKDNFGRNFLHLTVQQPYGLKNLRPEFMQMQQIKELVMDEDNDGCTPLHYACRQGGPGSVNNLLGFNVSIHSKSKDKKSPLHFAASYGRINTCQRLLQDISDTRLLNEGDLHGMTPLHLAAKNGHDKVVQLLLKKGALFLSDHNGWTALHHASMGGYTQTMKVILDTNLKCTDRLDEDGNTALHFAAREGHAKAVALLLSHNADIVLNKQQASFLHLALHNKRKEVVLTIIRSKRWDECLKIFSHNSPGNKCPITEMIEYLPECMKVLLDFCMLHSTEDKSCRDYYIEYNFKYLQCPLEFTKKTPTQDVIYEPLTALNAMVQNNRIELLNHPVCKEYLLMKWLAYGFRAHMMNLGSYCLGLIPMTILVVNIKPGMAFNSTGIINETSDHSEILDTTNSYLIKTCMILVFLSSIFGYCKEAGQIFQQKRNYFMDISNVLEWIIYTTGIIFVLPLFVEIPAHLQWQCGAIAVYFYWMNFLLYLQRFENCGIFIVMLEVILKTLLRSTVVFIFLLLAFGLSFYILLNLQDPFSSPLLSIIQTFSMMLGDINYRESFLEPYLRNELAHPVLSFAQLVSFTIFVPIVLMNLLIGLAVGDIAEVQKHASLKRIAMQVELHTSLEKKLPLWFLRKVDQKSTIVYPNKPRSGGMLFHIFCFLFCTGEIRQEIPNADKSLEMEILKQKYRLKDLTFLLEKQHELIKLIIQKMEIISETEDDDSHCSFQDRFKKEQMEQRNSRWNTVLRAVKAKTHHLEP
MEASURED_ENDPOINT: inhibition (%)
Provide the reading as a plain figure in %.

[
  {
    "LINE_NOTATION": "CN1C(=O)c2cccc(CC(=O)Nc3nc(-c4ccc(C(F)(F)F)c(F)c4)cs3)c2C1=O",
    "TARGET": "Transient receptor potential cation channel subfamily A member 1 (Homo sapiens)",
    "QUANTITATIVE_RESULT": 100
  }
]

So, "CN1C(=O)c2cccc(CC(=O)Nc3nc(-c4cccc(C(F)(F)F)c4)cs3)c2C1=O" ? Its inhibition was 96

Field inhibition (entry "CC(C)c1ccc(NC(=O)Cc2cccc3c2C(=O)N(C)C3=O)cc1" ) reads 21

Lab note: "CN1C(=O)c2cccc(CC(=O)Nc3nc(-c4ccc(I)cc4)cs3)c2C1=O" gave inhibition of 95

Quick note, inhibition for "Cc1cc(-c2csc(NC(=O)Cc3cccc4c3C(=O)N(C)C4=O)n2)ccc1Cl" landed at 91

# inhibition of "CN1C(=O)c2cccc(CC(=O)Nc3nc(-c4ccc(Cl)c(Cl)c4)cs3)c2C1=O" = 98

Record "CN1C(=O)c2cccc(CC(=O)Nc3nc(-c4cc(F)c(OC(F)F)c(F)c4)cs3)c2C1=O" . Reported inhibition: 99

// "CN1C(=O)c2cccc(CC(=O)Nc3nc(-c4ccc(Cl)cc4)cs3)c2C1=O" : inhibition value = 93

For this compound ( "CN1C(=O)c2cccc(CC(=O)Nc3nc(-c4cc(F)c(C(F)(F)F)c(F)c4)cs3)c2C1=O" ), measured inhibition is 100
